src = the Deep4Chem optical property database

- test: solvent given as SMILES
- experimental-context: in c1ccncc1
Listed below: emission maximum values for each entry.
Give just the number in nm; leave the unit off.

// worked examples, emission maximum included
- CN(C)c1ccc(/C=C2\CCCC2=O)cc1: 480
- C1=C(c2ccc(-c3cccs3)s2)CCC1: 418

Lookup: GET /values?readout=emission maximum&item= `CN(C)c1ccc(/C=C/c2cc[n+](CCCCC[n+]3ccc(/C=C/c4ccc(N(C)C)cc4)cc3)cc2)cc1`
Found: 596

Lookup: Requested field: emission maximum. Item: `O=CC1=C(c2ccc(-c3cccs3)s2)CC1`
Found: 495

Lookup: Item under review: `Fc1ccc(-c2nc3n(c2-c2ccncc2)CCS3)cc1` . Reported emission maximum?
Found: 434
